test.protocol: viability loss of HPDE-C7K cells – cell-based, fluorescence, HTS, primary screen (AID 431)
condition.notes: HPDE-C7K KRASV12 cells, Alamar Blue viability, 48 h; at 10 µM
Screen size: about 63,000 compounds; about 1,100 (1.7%) were called active.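 Rule for the calls: active = compounds whose percent cytotoxicity in the single-dose primary screen, scaled between solvent and toxic-drug controls, exceeds 50; inactive = the rest.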 Shown is part of a subset that was picked to be rich in actives. Results with a measured potency or affinity are listed apart.
Outcome field: choose from active, inactive

compound	class.label
COc1ccc(-c2nnc(NC(=O)c3ccc(S(=O)(=O)N4CCCc5ccccc54)cc3)o2)cc1	inactive
CC1(C)Cc2c(sc3nc(SCC(=O)NCc4ccco4)n(-c4ccccc4)c(=O)c23)CS1	inactive
CCSc1nc2sc3c(c2c2nnc(SCC(=O)NCc4ccco4)n12)CCCC3	inactive
Cc1nc2sc3c(c2c2nnc(SCC(=O)NCc4ccco4)n12)CCCC3	inactive
O=C(NC1CCCCC1)C(c1ccccc1F)N(Cc1ccco1)C(=O)Cn1nnc2ccccc21 (stereo not drawn)	active

### Prompt Short answer needed: outcome of this test for CCOc1cccc(OCCOCCN2CCCC2)c1 ?
### Response inactive

### Prompt Short answer needed: outcome of this test for O=C(Nc1cc(C(=O)N2CCOCC2)ccc1N1CCCC1)c1cccs1 ?
### Response inactive

### Prompt Short answer needed: outcome of this test for Cc1cc(C)c(C#N)c(Nc2ccc3c(c2)OCCO3)n1 ?
### Response inactive

---

test.protocol: viability loss of HPDE-C7K cells – cell-based, fluorescence, HTS, primary screen (AID 431)
condition.notes: HPDE-C7K KRASV12 cells, Alamar Blue viability, 48 h; at 10 µM
Screen size: about 63,000 compounds; about 1,100 (1.7%) were called active.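 The calls were made as follows: active = compounds whose percent cytotoxicity in the single-dose primary screen, scaled between solvent and toxic-drug controls, exceeds 50; inactive = the rest.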 The full list was thinned out, with actives kept by preference. Entries with a potency or affinity are not part of this list.
Outcome field: choose from active, inactive

compound	class.label
Cn1nnnc1SCCNCc1cccc2ccccc12	inactive
O=S(=O)(c1cccc2cccnc12)n1cnc2ccccc21	inactive
O=CNC1CCCc2c1[nH]c1ccc(Cl)cc21 (stereo not drawn)	inactive
CC(C)(C)NC(=O)c1ccc2nccnc2c1	inactive
O=C1CCN(Cc2nnnn2CC2CCCO2)c2ccccc2N1 (stereo not drawn)	inactive
COc1ccc(S(=O)(=O)C(C#N)c2nc3ccccc3nc2N2CCCC(C)C2)cc1 (stereo not drawn)	active
Cc1ccc(S(=O)(=O)C(C#N)c2nc3ccccc3nc2N2CCCC2)cc1C (stereo not drawn)	active
c1cnc(NCCNc2ncccn2)nc1	inactive

### Prompt Short answer needed: outcome of this test for Cc1ccc(S(=O)(=O)C(C#N)c2nc3ccccc3nc2N2CC(C)OC(C)C2)cc1C (stereo not drawn) ?
### Response active

### Prompt Short answer needed: outcome of this test for CCOC(=O)C(C)Oc1ccc(C2NC(=O)NC(C)=C2C(C)=O)cc1Br (stereo not drawn) ?
### Response inactive

### Prompt Short answer needed: outcome of this test for Cc1ccc(S(=O)(=O)C(C#N)c2nc3ccccc3nc2N2CCCC2)cc1 (stereo not drawn) ?
### Response inactive

### Prompt Short answer needed: outcome of this test for Cc1ccc(S(=O)(=O)NC2CCOC(C)(C)C2)cc1 (stereo not drawn) ?
### Response inactive

### Prompt Short answer needed: outcome of this test for Cc1ccc(S(=O)(=O)C(C#N)c2nc3ccccc3nc2N2CCC(C)CC2)cc1 (stereo not drawn) ?
### Response inactive

---

test.protocol: viability loss of HPDE-C7K cells – cell-based, fluorescence, HTS, primary screen (AID 431)
condition.notes: HPDE-C7K KRASV12 cells, Alamar Blue viability, 48 h; at 10 µM
Screen size: about 63,000 compounds; about 1,100 (1.7%) were called active.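 Rule for the calls: active = compounds whose percent cytotoxicity in the single-dose primary screen, scaled between solvent and toxic-drug controls, exceeds 50; inactive = the rest.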 The list comes from a sample in which actives are over-represented; it also holds close analogues and randomly drawn compounds. Potency and affinity values are given separately.
Outcome field: choose from active, inactive

Use these answered entries as a reference point.
compound	class.label
CCC(C)(C)NC(=O)C(c1cccn1C)N(C(=O)Cn1nnc2ccccc21)c1ccc(OC)cc1 (stereo not drawn)	inactive
COc1cc(C(=O)Nc2ccc(NC(=O)c3ccco3)nc2)cc(OC)c1OC	inactive
COc1cc(NC(=O)Nc2ccccc2OC)c(OC)cc1NC(=O)CN1CCCCC1	inactive

### Prompt Short answer needed: outcome of this test for Cc1cc(C)nc(NS(=O)(=O)c2ccccc2)n1 ?
### Response inactive

### Prompt Short answer needed: outcome of this test for COc1ccc(S(=O)(=O)NC2CC3CCC2C3)cc1Cl (stereo not drawn) ?
### Response inactive

### Prompt Short answer needed: outcome of this test for COc1cc(NC(=O)c2ccco2)c(OC)cc1NC(=O)c1cc(OC)c(OC)c(OC)c1 ?
### Response active

### Prompt Short answer needed: outcome of this test for C=C(C)COc1ccc(-c2nc(N)ncc2Oc2ccccc2OC)c(O)c1 ?
### Response inactive

### Prompt Short answer needed: outcome of this test for C=C(C)COc1ccc(-c2nc(N)ncc2-c2ccc(OC)cc2)c(O)c1 ?
### Response active
